- STUDY_TARGET: GlcNAc(b1-3)Gal(b1-4)GlcNAc(b1-3)Gal(b1-4)GlcNAc(b1-3)GalNAc
- ASSAY_NOTES: glycan array binding signal (z-score within array); higher = stronger binding
- TEST_CONTEXT: glycan notation: IUPAC condensed, linker removed
Many of the other results were omitted from the sample, so the strongest signals are more common in it than they were.
We use -0.2 as the dividing line for glycan array binding signal (z-score): on or above the line is Condition met, below is Condition not met.

Check the entry Nictaba (Nicotiana tabacum), Q94EW1 (protein) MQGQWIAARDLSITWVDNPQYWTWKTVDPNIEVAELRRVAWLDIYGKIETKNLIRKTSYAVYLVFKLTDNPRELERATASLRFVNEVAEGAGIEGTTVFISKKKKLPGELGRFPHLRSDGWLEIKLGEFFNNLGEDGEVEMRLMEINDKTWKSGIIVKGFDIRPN : does glycan array binding signal (z-score) equal or exceed -0.2? Condition not met

Check the entry MPA (Maclura pomifera), P18674 (protein) GVTFDDGAYTGIREINFEYNSETAIGGLRVTYDLNGMPFVAEDHKSFITGFKPVKISLEFPSEYIVEVSGYVGKVEGYTVIRSLTFKTNKQTYGPYGVTNGTPFSLPIENGLIVGFKGSIGYWLDYFSIYLSL : does glycan array binding signal (z-score) equal or exceed -0.2? Condition not met

Check the entry Arath Fbox (Arabidopsis thaliana), NP_178341.1 (protein) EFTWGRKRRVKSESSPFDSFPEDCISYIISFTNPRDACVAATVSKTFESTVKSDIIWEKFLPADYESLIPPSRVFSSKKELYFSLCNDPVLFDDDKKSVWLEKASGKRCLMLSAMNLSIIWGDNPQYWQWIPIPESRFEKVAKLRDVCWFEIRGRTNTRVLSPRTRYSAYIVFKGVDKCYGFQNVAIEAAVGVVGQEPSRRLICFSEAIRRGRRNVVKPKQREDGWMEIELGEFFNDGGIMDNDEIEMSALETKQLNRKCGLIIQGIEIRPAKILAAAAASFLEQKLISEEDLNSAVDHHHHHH : does glycan array binding signal (z-score) equal or exceed -0.2? Condition not met

Check the entry Banana lectin (Musa acuminata) (protein) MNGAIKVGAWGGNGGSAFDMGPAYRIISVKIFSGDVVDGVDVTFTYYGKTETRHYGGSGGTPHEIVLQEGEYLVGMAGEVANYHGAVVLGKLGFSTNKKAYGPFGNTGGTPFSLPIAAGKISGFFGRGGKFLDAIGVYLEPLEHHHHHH : does glycan array binding signal (z-score) equal or exceed -0.2? Condition met

Check the entry rCNL (Clitocybe nebularis), B2ZRS9 (protein) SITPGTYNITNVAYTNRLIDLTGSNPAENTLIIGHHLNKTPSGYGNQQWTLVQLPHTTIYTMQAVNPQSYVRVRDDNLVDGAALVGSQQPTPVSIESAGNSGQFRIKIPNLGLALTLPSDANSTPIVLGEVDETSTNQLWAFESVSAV : does glycan array binding signal (z-score) equal or exceed -0.2? Condition not met

Check the entry LlpA (Arthrobacter sp) (protein) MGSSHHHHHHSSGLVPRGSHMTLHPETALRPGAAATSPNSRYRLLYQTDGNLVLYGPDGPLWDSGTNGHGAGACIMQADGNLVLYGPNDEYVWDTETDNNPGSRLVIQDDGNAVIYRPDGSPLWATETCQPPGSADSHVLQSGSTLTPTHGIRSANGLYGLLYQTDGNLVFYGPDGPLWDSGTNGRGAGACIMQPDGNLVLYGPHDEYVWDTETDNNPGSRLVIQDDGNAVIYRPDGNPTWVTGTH : does glycan array binding signal (z-score) equal or exceed -0.2? Condition met
